B1: Hairpin Ribozyme (parent)
chain: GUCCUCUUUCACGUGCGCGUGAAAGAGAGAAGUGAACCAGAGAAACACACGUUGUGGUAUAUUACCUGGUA

variants of: B1; experiment: self-cleavage, relative activity (ratio to wild type); higher = more cleavage; co-transcriptional
Criterion: self-cleavage meeting or surpassing 0.4. Met: label 1. Not met: label 0.

Does self-cleavage meet or surpass 0.4 for C4A A22U ? label 0

Also check G15A A45G label 0

Also check G21C A43G label 0

Also check G13U G21C label 1

Also check C3A A23C label 1

Also check A26C U62G label 0

Also check C3A C65A label 1

Also check C46U C48G label 0

Also check A11U U55A label 0

Also check U2G C50G label 0

Also check C6U A45G label 0

Also check A31G A44G label 0

Also check U5A U14C label 0

Also check U7C U58C label 1

Also check C6U U60G label 1

Also check A45U C66U label 0

Also check G21C C65A label 1

Also check C12A G19U label 1

Also check C10A G25U label 0

Also check U9C A47C label 0

Also check U20G G40C label 0

Also check C4G A30G label 0
